Source listed as PubChem BioAssay (NCI).

# System: BT-549 breast
# testName: NCI tumour cell line growth inhibition, 48 h; in the data active means GI50 below about 0.43 µM; inactive means the rest
Labels: active, inactive

compound	classification
COc1ccc2c(c1)C(=O)c1c-2c(N2CCN(C(=O)CN(C)C)CC2)nc2ccccc12	inactive
CCN(CC)CCCC(C)N/C(c1cccc(OC)c1)=c1\c(=O)[nH]n(-c2c3ccccc3nc3ccccc23)c(=O)\c1=C(/NC(C)CCCN(CC)CC)c1cccc(OC)c1 (stereo not given)	inactive
CN1CCN(Cc2ccc(NC(=O)c3[nH]ncc3Nc3ccnc4ccsc34)cc2)CC1	inactive
CN(C)c1ccc2[nH]c(O)c(C=Nc3ccc(S(N)(=O)=O)cc3)c2c1	inactive
COc1ccc(C(=O)c2ccc(OC)cc2OC)cc1	inactive
CCC(=O)Nc1ccc2c(c1)CN1C(=O)c3ccccc3C1=N2	inactive
O=C1CC(N2C(=O)/C(=C/C(Cl)=C\c3ccc([N+](=O)[O-])cc3)SC2=S)C(=O)N1c1ccc(Cl)cc1 (stereo not given)	inactive
C=C1C(=O)O[C@H]2[C@H]1CC/C(COC(=O)NCCc1c[nH]c3ccccc13)=C\CC[C@@]1(C)O[C@@H]21	inactive
CCC[CH2][Sn]([CH2]CCC)([O]C(=O)c1cccc(F)c1F)[O][Sn]([CH2]CCC)([CH2]CCC)[O]C(=O)c1cccc(F)c1F	active
O=C(Nc1nc(-c2ccc(Cl)cc2)cs1)c1ccc(O)c(O)c1	inactive
